Reference source: patent US20150011528A1

biological target: binding between KRS and AIMP2 (Homo sapiens, UniProt Q15046); construct: expressed in transfected cells; host or cells: yeast cells (co-transformed); assay: Yeast Two Hybrid specificity test, LexA-KRS / B42-AIMP2 co-transformed yeast cells; type: cell-based; conditions: 1 μL of 20 mM DMSO solution per 200 μL culture; 30° C., 6 days; absorbance 540 nm; non-treated control = 100%
Sequence (Q15046 whole entry): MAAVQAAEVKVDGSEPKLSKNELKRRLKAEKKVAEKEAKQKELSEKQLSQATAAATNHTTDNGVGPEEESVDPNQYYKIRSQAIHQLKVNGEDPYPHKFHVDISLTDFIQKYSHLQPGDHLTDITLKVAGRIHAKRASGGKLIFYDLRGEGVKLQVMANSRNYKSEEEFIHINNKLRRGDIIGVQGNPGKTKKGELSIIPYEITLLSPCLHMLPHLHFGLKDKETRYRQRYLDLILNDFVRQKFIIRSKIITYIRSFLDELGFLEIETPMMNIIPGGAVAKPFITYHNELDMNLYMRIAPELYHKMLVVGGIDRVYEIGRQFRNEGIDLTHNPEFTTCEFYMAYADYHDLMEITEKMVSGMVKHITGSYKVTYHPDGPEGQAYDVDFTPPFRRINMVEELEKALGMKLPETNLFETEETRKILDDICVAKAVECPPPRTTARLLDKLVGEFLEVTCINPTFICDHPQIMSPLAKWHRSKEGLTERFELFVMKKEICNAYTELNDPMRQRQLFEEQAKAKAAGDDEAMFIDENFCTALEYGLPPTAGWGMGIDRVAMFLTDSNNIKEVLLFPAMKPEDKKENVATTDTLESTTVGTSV
MEASURE NAME: Yeast cell proliferation rates KRS-AIMP2 (%)

CCC(C(=O)O)n1c(=NC(=O)c2cccc(Cl)c2)sc2ccc(Cl)cc21 (stereo not shown) [Example 361]    104.3
CC(C(=O)O)n1c(=NC(=O)c2cccc(Cl)c2)sc2c(F)c(F)ccc21 (stereo not shown) [Example 337]    92.5
CC(C(=O)O)n1c(=NC(=O)c2cccc(C(F)(F)F)c2)sc2c(F)cc(F)cc21 (stereo not shown) [Example 458]    96.4
CCC(C(=O)O)n1c(=NC(=O)c2ccc(OC)cc2)sc2c(F)cccc21 (stereo not shown) [Example 533]    94.8
CC(C(=O)O)n1c(=NC(=O)c2cccc(Cl)c2)sc2c(F)c(F)c(F)cc21 (stereo not shown) [Example 416]    99.6
CCC(C(=O)O)n1c(=NC(=O)c2ccc(C)cc2)sc2cc3c(cc21)OCO3 (stereo not shown) [Example 237]    99.0
CCC(C(=O)O)n1c(=NC(=O)c2ccc(C(F)(F)F)cc2)sc2ccccc21 (stereo not shown) [Example 64]    99.2

---

target: binding between KRS and AIMP3 (Homo sapiens, UniProt Q15046); construct: expressed in transfected cells; host or cells: yeast cells (co-transformed); test: Yeast Two Hybrid specificity test, LexA-KRS / B42-AIMP3 co-transformed yeast cells; type: cell-based; details: 1 μL of 20 mM DMSO solution per 200 μL culture; 30° C., 6 days; absorbance 540 nm; non-treated control = 100%
Sequence (Q15046 whole entry): as above
MEASURE NAME: Yeast cell proliferation rates KRS-AIMP3 (%)

CC(C(=O)O)n1c(=NC(=O)c2cccc(Cl)c2)sc2cc(C(F)(F)F)ccc21 (stereo not shown) [Example 172]    104.1
CC(C(=O)O)n1c(=NC(=O)c2cccc(Cl)c2)sc2c(Cl)cccc21 (stereo not shown) [Example 309]    101.4
CC(C(=O)O)n1c(=NC(=O)c2cccc(Cl)c2)sc2c(F)c(F)c(F)cc21 (stereo not shown) [Example 416]    99.3
CCC(C(=O)O)n1c(=NC(=O)c2cccc(F)c2)sc2c(F)c(F)ccc21 (stereo not shown) [Example 582]    93.0

---

experiment: Cytotoxicity Study (WST); assay type: cell-based; details: human; A549 cells, serum-free RPMI1640, test compounds 0.39˜100 μM, 5 hours + 2 hours WST, absorbance 450 nm
IC50 at 5 h values for the compounds below.
A number alone suffices; assume µM.

// solved cases for IC50 at 5 h follow
O=C(O)Cn1c(=NC(=O)c2cccc(C(F)(F)F)c2)sc2ccccc21    7490
CCC(C(=O)O)n1c(=NC(=O)c2ccc([N+](=O)[O-])cc2)sc2ccccc21 (stereo not shown)    828

Consider the compound CC(C(=O)O)n1c(=NC(=O)c2cccc(Cl)c2)sc2cc(F)c(C(F)(F)F)cc21 (stereo not shown) and give its recorded IC50 at 5 h.
368

Query IC50 at 5 h for CCC(C(=O)O)n1c(=NC(=O)c2cc(F)cc(F)c2)sc2ccccc21 (stereo not shown)
636

Please report the measured IC50 at 5 h for CCC(C(=O)O)n1c(=NC(=O)c2ccccc2)sc2ccccc21 (stereo not shown)
281

Assign IC50 at 5 h to the following record: CC(C(=O)O)n1c(=NC(=O)c2cccc(Cl)c2)sc2c(Cl)cccc21 (stereo not shown)
134

Using the record for CCC(C(=O)O)n1c2c(sc1=NC(=O)c1cccc(Cl)c1)CCCC2 (stereo not shown) , state its measured IC50 at 5 h.
344
